study target: Cyclin-dependent kinase 5/CDK5 activator 1 (Homo sapiens, UniProt Q00535)
Sequence (Q00535 whole entry): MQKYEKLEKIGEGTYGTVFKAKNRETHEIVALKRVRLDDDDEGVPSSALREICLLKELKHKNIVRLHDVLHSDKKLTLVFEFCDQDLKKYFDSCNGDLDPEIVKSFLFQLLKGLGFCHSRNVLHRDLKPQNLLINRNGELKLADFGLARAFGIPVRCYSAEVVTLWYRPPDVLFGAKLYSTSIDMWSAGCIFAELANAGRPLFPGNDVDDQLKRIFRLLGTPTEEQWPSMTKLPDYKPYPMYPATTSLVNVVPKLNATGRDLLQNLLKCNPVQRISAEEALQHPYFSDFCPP
Sequence (Q15078 whole entry, further chain): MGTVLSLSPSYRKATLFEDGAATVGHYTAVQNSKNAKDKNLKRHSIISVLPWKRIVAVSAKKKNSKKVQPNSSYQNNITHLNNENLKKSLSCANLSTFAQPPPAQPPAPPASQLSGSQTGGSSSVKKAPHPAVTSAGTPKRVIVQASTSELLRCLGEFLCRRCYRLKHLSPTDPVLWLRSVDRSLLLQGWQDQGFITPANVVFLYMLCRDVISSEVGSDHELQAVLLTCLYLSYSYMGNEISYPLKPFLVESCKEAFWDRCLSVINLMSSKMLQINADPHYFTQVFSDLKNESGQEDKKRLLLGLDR
assay protocol: Inhibition of human recombinant CDK5/p25 assessed as incorporation of [gamma-33P]-ATP into histone H1 substrate after 30 mins by scintillation counting
endpoint label: IC50 (µM)

• O=C1Cc2c([nH]c3ccncc23)-c2ccccc2N1 = 3
• O=C1Cc2c([nH]c3cc[n+]([O-])cc23)-c2ccccc2N1 = 7.3

----------
study target: Dual specificity protein kinase CLK1 (Homo sapiens)
Sequence (P49759 whole entry): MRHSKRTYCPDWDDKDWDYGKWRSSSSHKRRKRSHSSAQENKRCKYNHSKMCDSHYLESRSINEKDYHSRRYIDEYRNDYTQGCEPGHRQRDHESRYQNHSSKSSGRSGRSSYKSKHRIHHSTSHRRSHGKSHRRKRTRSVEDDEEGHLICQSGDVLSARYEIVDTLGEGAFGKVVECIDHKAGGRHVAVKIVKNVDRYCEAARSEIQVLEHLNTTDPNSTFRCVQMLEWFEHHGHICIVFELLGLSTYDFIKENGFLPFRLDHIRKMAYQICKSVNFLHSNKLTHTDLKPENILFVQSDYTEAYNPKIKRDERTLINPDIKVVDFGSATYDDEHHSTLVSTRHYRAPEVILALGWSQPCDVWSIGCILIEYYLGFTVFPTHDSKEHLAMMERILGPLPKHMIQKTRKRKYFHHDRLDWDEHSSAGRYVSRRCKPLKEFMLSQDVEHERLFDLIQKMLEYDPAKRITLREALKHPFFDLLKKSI
Listed here are compounds together with their documented IC50.
endpoint label: IC50

• O=C1Cc2c([nH]c3cc[n+]([O-])cc23)-c2ccccc2N1 = > 10 µM
• O=C1Cc2c([nH]c3ccc(Br)cc23)-c2ccccc2N1 = > 10 µM

----------
Entries and their pIC50
study target: Dual specificity tyrosine-phosphorylation-regulated kinase 1A (Rattus norvegicus, UniProt Q63470)
assay protocol: Inhibition of rat recombinant GST-fused DYRK1A expressed in Escherichia coli assessed as assessed as incorporation of [gamma-33P]-ATP into myelin basic protein after 30 mins by scintillation counting
pIC50: −log10 of the molar value.
endpoint label: pIC50

• O=C1Cc2c([nH]c3ccc(Br)cc23)-c2ccccc2N1 [KENPAULLONE] = < 5.00
• O=C1Cc2c([nH]c3cc[n+]([O-])cc23)-c2ccccc2N1 = < 5.00
• O=C1Cc2c([nH]c3cc[n+](Cc4ccccc4)cc23)-c2ccccc2N1 = < 5.00

----------
study target: Cyclin-dependent kinase 2/cyclin A (Homo sapiens)
assay protocol: Inhibition of human recombinant CDK2/cyclin A assessed as incorporation of [gamma-33P]-ATP into histone H1 substrate after 30 mins by scintillation counting
pIC50: −log10 of the molar value.
endpoint label: pIC50

* O=C1Cc2c([nH]c3cc[n+]([O-])cc23)-c2ccccc2N1 | 5.21
* O=C1Cc2c([nH]c3ccncc23)-c2ccccc2N1 | 5.68
* O=C1Cc2c([nH]c3ccccc23)-c2ccccc2N1 [PAULLONE] | 5.57

Data origin, for the record: ChEMBL document CHEMBL1781921
